# Test system: MFE-296
# Assay remarks: SANGER: Inhibition of human MFE-296 cell growth in a cell viability assay.
# Format: functional, cell-based
pIC50: −log10 of the molar value.
Recorded endpoint: pIC50

* N#C/C(=C1/Nc2ccccc2S1)c1ccnc(NCCc2cccnc2)n1 | 5.81
* C/C=C(/C)C(=O)O[C@H]1C(C)=C2[C@H]([C@@H]1OC(=O)CCCCCCC)[C@@](C)(OC(C)=O)C[C@H](OC(=O)CCC)[C@@]1(O)[C@H]2OC(=O)[C@@]1(C)O | 8.53

====

Parameter IC50: see the listing below.
# Test system: LB2518-MEL;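 also: growth inhibition of human LB2518-MEL cells, measured with a cell viability assay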
# Assay remarks: cells
# Format: functional, cell-based
# Test context: Homo sapiens
# Description: SANGER: Inhibition of human LB2518-MEL cell growth in a cell viability assay.
Recorded endpoint: IC50

- NC(=O)c1ncn([C@@H]2O[C@H](COP(=O)(O)O)[C@@H](O)[C@H]2O)c1N: > 2000 µM
- O=c1cc(N2CCOCC2)oc2c(-c3cccc4c3sc3ccccc34)cccc12: > 2 µM
- CC(C)=CC[C@@H](O)C1=CC(=O)c2c(O)ccc(O)c2C1=O: 3.28 µM
- Cn1cc(/C=C2\C(=O)Nc3cccnc32)c2ccccc21: > 2 µM
- Cc1n[nH]c2ccc(-c3cncc(OC[C@@H](N)Cc4c[nH]c5ccccc45)c3)cc12: 0.397 µM
- CC(=O)c1c(C)c2cnc(Nc3ccc(N4CCNCC4)cn3)nc2n(C2CCCC2)c1=O: > 4 µM
- C/C(O)=C(\C#N)C(=O)Nc1cc(Br)ccc1Br: > 16 µM

====

# Test system: EFO-27;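 also: growth inhibition of EFO-27 cells, read out with a cell viability assay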
# Assay remarks: cells
# Format: functional, cell-based
# Test context: Homo sapiens
# Description: SANGER: Inhibition of human EFO-27 cell growth in a cell viability assay.
Recorded endpoint: IC50 (nM)

- CC(C)=CC[C@@H](O)C1=CC(=O)c2c(O)ccc(O)c2C1=O: 330
- CCNC(=O)c1noc(-c2cc(C(C)C)c(O)cc2O)c1-c1ccc(CN2CCOCC2)cc1: 10.2
- C/C=C(/C)C(=O)O[C@H]1C(C)=C2[C@H]([C@@H]1OC(=O)CCCCCCC)[C@@](C)(OC(C)=O)C[C@H](OC(=O)CCC)[C@@]1(O)[C@H]2OC(=O)[C@@]1(C)O: 25.4
- COc1cc(Nc2c(C#N)cnc3cc(OCCCN4CCN(C)CC4)c(OC)cc23)c(Cl)cc1Cl: 1690

====

# Tested on: HLE;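 also: growth inhibition of human HLE cells, read out by a cell viability assay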
# Assay remarks: cells
# Assay type: functional, cell-based
# Test context: Homo sapiens
# Description: SANGER: Inhibition of human HLE cell growth in a cell viability assay.
pIC50: −log10 of the molar value.
Recorded endpoint: pIC50

- CC(=O)c1c(C)c2cnc(Nc3ccc(N4CCNCC4)cn3)nc2n(C2CCCC2)c1=O [PALBOCICLIB]: < 5.40
- CO[C@@]12[C@H](COC(N)=O)C3=C(C(=O)C(C)=C(N)C3=O)N1C[C@@H]1N[C@@H]12 [MITOMYCIN]: 6.30
- Cn1cc(/C=C2\C(=O)Nc3cccnc32)c2ccccc21: < 5.70
- CCNC(=O)c1noc(-c2cc(C(C)C)c(O)cc2O)c1-c1ccc(CN2CCOCC2)cc1 [LUMINESPIB]: 7.22
- C[C@]1(c2nc3c(C(N)=O)cccc3[nH]2)CCCN1 [VELIPARIB]: < 5.30
- C[C@]12O[C@H](C[C@]1(O)CO)n1c3ccccc3c3c4c(c5c6ccccc6n2c5c31)CNC4=O [LESTAURTINIB]: 5.86
- CCCS(=O)(=O)Nc1ccc(F)c(C(=O)c2c[nH]c3ncc(Cl)cc23)c1F [PLX-4720]: < 5.00
- O=c1[nH]c2ccccc2n1C1CCN(Cc2ccc(-c3nc4cc5[nH]cnc5cc4nc3-c3ccccc3)cc2)CC1: < 5.59
- COc1cc(Nc2c(C#N)cnc3cc(OCCCN4CCN(C)CC4)c(OC)cc23)c(Cl)cc1Cl [BOSUTINIB]: < 5.70
